Below: compounds with IC50 recorded for Mast/stem cell growth factor receptor Kit (Homo sapiens) in separate published works.

Assay Mast/stem cell growth factor receptor Kit (Homo sapiens), sample CCc1ccc(Nc2ccc(Cc3c[nH]c4ncnc(OC)c34)c(F)n2)cn1 , IC50 read: < 0.1 µM

Assay Mast/stem cell growth factor receptor Kit (Homo sapiens), sample O=C(Nc1n[nH]c2c1CCn1cc(C(=O)N3CCCCC3)cc1-2)c1ccccc1Cl , IC50 read: 6.61 µM

Assay Mast/stem cell growth factor receptor Kit (Homo sapiens), sample CC1CN(c2cncnc2)Cc2cc(C(=O)Nc3cc(CN4CCCCC4)cc(C(F)(F)F)c3)ccc21 (centres unmarked) , IC50 read: > 10 µM

Assay Mast/stem cell growth factor receptor Kit (Homo sapiens), sample CSc1cccc(-c2c[nH]c3ncccc23)c1 , IC50 read: ≤ 10 µM

Assay Mast/stem cell growth factor receptor Kit (Homo sapiens), sample COc1ccc(Nc2ccc(Cc3c[nH]c4ncnc(C5CC5)c34)c(F)n2)cn1 , IC50 read: < 1 µM

Assay Mast/stem cell growth factor receptor Kit (Homo sapiens), sample COCCOCCOCCOCCOCCOCCOCCOCCOCCNC(=O)c1c(C)[nH]c(/C=C2\C(=O)Nc3ccc(F)cc32)c1C , IC50 read: 0.39 µM

Assay Mast/stem cell growth factor receptor Kit (Homo sapiens), sample O=C(c1ccccc1F)c1c[nH]c2nccc(-c3cc(F)cc(F)c3)c12 , IC50 read: ≤ 10 µM

Assay Mast/stem cell growth factor receptor Kit (Homo sapiens), sample COc1ncc(-c2cnc3[nH]cc(C(=O)c4c(F)ccc(NS(=O)(=O)c5c(F)cccc5F)c4F)c3c2)cn1 , IC50 read: ≤ 10 µM

Assay Mast/stem cell growth factor receptor Kit (Homo sapiens), sample COc1ccc(Cl)cc1NC(=O)OCc1cccc(-c2cncnc2)c1 , IC50 read: 0.5 to 5 µM

Assay Mast/stem cell growth factor receptor Kit (Homo sapiens), sample O=C(NCc1ccccc1)Nc1cccc(C(=O)c2c[nH]c3ncc(-c4cccnc4)cc23)c1 , IC50 read: ≤ 10 µM

Assay Mast/stem cell growth factor receptor Kit (Homo sapiens), sample Cc1ccc(Nc2ccc(C(=O)c3c[nH]c4ncnc(C5CC5)c34)c(F)n2)cn1 , IC50 read: < 0.1 µM

Assay Mast/stem cell growth factor receptor Kit (Homo sapiens), sample Cn1cc(-c2cnc3[nH]cc(C(=O)c4cc(NS(=O)(=O)c5cccnc5)ccc4F)c3c2)cn1 , IC50 read: ≤ 10 µM

Assay Mast/stem cell growth factor receptor Kit (Homo sapiens), sample CCCS(=O)(=O)Nc1ccc(F)c(Cc2c[nH]c3ncc(N4CCOCC4)cc23)c1F , IC50 read: ≤ 10 µM

Assay Mast/stem cell growth factor receptor Kit (Homo sapiens), sample COc1ccc(CNc2ncc(Cc3c[nH]c4ncncc34)cc2C)cn1 , IC50 read: ≤ 10 µM

Assay Mast/stem cell growth factor receptor Kit (Homo sapiens), sample O=C(c1ccc(NC2CCC(F)(F)CC2)nc1F)c1c[nH]c2ncnc(NC3CC3)c12 , IC50 read: < 0.1 µM

Assay Mast/stem cell growth factor receptor Kit (Homo sapiens), sample COc1ncc(-c2cnc3[nH]cc(C(=O)c4c(F)ccc(NS(=O)(=O)N5CCCC5)c4F)c3c2)cn1 , IC50 read: ≤ 10 µM

Assay Mast/stem cell growth factor receptor Kit (Homo sapiens), sample Cn1cc(-c2cnc3[nH]cc(C(=O)c4cc(NS(=O)(=O)c5cccc(OC(F)(F)F)c5)ccc4F)c3c2)cn1 , IC50 read: ≤ 10 µM

Assay Mast/stem cell growth factor receptor Kit (Homo sapiens), sample CCCS(=O)(=O)Nc1ccc(F)c(C(=O)c2c[nH]c3ncc(-c4ccc(F)cc4)cc23)c1F , IC50 read: ≤ 10 µM

Assay Mast/stem cell growth factor receptor Kit (Homo sapiens), sample O=C(Nc1cccc(C(F)(F)F)c1)OCc1cccc(-n2cnnn2)c1 , IC50 read: 0.05 to 0.5 µM

Assay Mast/stem cell growth factor receptor Kit (Homo sapiens), sample O=C(c1c(F)ccc(NS(=O)(=O)CC(F)(F)F)c1F)c1c[nH]c2ncc(Br)cc12 , IC50 read: ≤ 10 µM

Assay Mast/stem cell growth factor receptor Kit (Homo sapiens), sample CCCS(=O)(=O)Nc1ccc(F)c(C(=O)c2c[nH]c3ncc(-c4ccc(OC)cc4)cc23)c1F , IC50 read: ≤ 10 µM

Assay Mast/stem cell growth factor receptor Kit (Homo sapiens), sample CCN1CCC(Nc2ccc3c(c2)/C(=C(\c2cccc(C(F)(F)F)c2)c2nc(C)c[nH]2)C(=O)N3)CC1 , IC50 read: < 0.05 µM

Assay Mast/stem cell growth factor receptor Kit (Homo sapiens), sample CCCS(=O)(=O)Nc1ccc(F)c(C(=O)c2c[nH]c3ncc(-c4cccc(CN5CCOCC5)c4)cc23)c1F , IC50 read: ≤ 10 µM

Assay Mast/stem cell growth factor receptor Kit (Homo sapiens), sample CC(C)c1ccc(S(=O)(=O)Nc2ccc(F)c(C(=O)c3c[nH]c4ncc(Cl)cc34)c2F)cc1 , IC50 read: ≤ 10 µM

Assay Mast/stem cell growth factor receptor Kit (Homo sapiens), sample CC1CN(c2cncnc2)Cc2cc(C(=O)Nc3cccc(C(F)(F)F)c3)ccc21 (centres unmarked) , IC50 read: > 10 µM

Assay Mast/stem cell growth factor receptor Kit (Homo sapiens), sample O=C(NCc1ccc(-c2cn[nH]c2)cc1)Nc1ccc(Cl)c(C(F)(F)F)c1 , IC50 read: 0.5 to 5 µM

Assay Mast/stem cell growth factor receptor Kit (Homo sapiens), sample COc1cc(Cc2c[nH]c3ncc(Cl)cc23)c(F)cc1OCc1nc2cc(C(F)(F)F)ccc2[nH]1 , IC50 read: ≤ 10 µM

Assay Mast/stem cell growth factor receptor Kit (Homo sapiens), sample CS(=O)(=O)Nc1cccc(-c2cnc3[nH]cc(Cc4ccc5c(c4)OCCO5)c3c2)c1 , IC50 read: ≤ 10 µM

Assay Mast/stem cell growth factor receptor Kit (Homo sapiens), sample CCc1ccc(Nc2ccc(C(=O)c3c[nH]c4ncnc(NCC(C)C)c34)c(F)n2)cn1 , IC50 read: < 0.01 µM

Assay Mast/stem cell growth factor receptor Kit (Homo sapiens), sample CNc1ncc2c(n1)N1CCN=C1C(c1c(C)ccc(NS(=O)(=O)c3ccccc3Cl)c1F)=C2 , IC50 read: 0.1 to 10 µM

Assay Mast/stem cell growth factor receptor Kit (Homo sapiens), sample CCNc1ncnc2[nH]cc(C(=O)c3ccc(NC4CCC(F)(F)CC4)nc3Cl)c12 , IC50 read: < 1 µM

Assay Mast/stem cell growth factor receptor Kit (Homo sapiens), sample Fc1nc(NCc2ccc(Cl)cn2)ccc1Cc1c[nH]c2ncncc12 , IC50 read: ≤ 10 µM

----------
Below: molecules with pIC50 recorded for Mast/stem cell growth factor receptor Kit (Homo sapiens) in separate published works.
pIC50: −log10 of the molar value.

Assay Mast/stem cell growth factor receptor Kit (Homo sapiens), sample O=C(Nc1cccc(C(F)(F)F)n1)OCc1cccc(-n2cnnn2)c1 , pIC50 read: 5.30 to 6.30

Assay Mast/stem cell growth factor receptor Kit (Homo sapiens), sample COc1cnc2[nH]cc(C(=O)c3cccc(NS(=O)(=O)C4CCCC4)c3)c2c1 , pIC50 read: ≥ 5.00

Assay Mast/stem cell growth factor receptor Kit (Homo sapiens), sample CN(C)c1ccc(Cc2c[nH]c3ncccc23)cn1 , pIC50 read: ≥ 5.00

Assay Mast/stem cell growth factor receptor Kit (Homo sapiens), sample O=C(c1cc(NS(=O)(=O)c2ccc(F)cc2)ccc1F)c1c[nH]c2ncccc12 , pIC50 read: ≥ 5.00

Assay Mast/stem cell growth factor receptor Kit (Homo sapiens), sample Clc1ccc(Nc2ncc(Cc3c[nH]c4ncc(Cl)cc34)cn2)cc1 , pIC50 read: > 8.00

Assay Mast/stem cell growth factor receptor Kit (Homo sapiens), sample O=C(c1c(F)ccc(NS(=O)(=O)N2CCCCC2)c1F)c1c[nH]c2ncccc12 , pIC50 read: ≥ 5.00

Assay Mast/stem cell growth factor receptor Kit (Homo sapiens), sample COc1ccc(NC(=O)Nc2ccc(-c3csc4c(-c5cnn(C[C@H](O)CO)c5)cnc(N)c34)cc2)cc1 , pIC50 read: 7.90

Assay Mast/stem cell growth factor receptor Kit (Homo sapiens), sample COCCOc1ncnc2[nH]cc(Cc3ccc(Nc4ccc(OC)nc4)nc3F)c12 , pIC50 read: > 6.00

----------
pIC50: −log10 of the molar value.
Below: compounds with pIC50 recorded for Mast/stem cell growth factor receptor Kit (Homo sapiens, UniProt P10721) in separate published works.

Assay Mast/stem cell growth factor receptor Kit (Homo sapiens, UniProt P10721), sample Cc1nc(-c2cnc(NC(C)C)[nH]c2=O)ccc1Cc1c[nH]c2ncccc12 , pIC50 read: 6.61

Assay Mast/stem cell growth factor receptor Kit (Homo sapiens, UniProt P10721), sample Cn1cc(-c2cnc3[nH]cc(C(=O)c4c(F)ccc(OCC(F)(F)F)c4Cl)c3c2)cn1 , pIC50 read: ≥ 5.00

Assay Mast/stem cell growth factor receptor Kit (Homo sapiens, UniProt P10721), sample c1ccc(Oc2ccc(Nc3c[nH]c4ncccc34)cc2)cc1 , pIC50 read: ≥ 5.00

Assay Mast/stem cell growth factor receptor Kit (Homo sapiens, UniProt P10721), sample CCCS(=O)(=O)Nc1ccc(F)c(C(=O)c2c[nH]c3ncc(-c4ccc(S(=O)(=O)NC5CC5)cc4)cc23)c1F , pIC50 read: ≥ 5.00
